target: human catalytic domain HDAC4 protein (amino acids 648-1032) (Homo sapiens (Human), UniProt P56524)
Sequence (P56524 648-1032): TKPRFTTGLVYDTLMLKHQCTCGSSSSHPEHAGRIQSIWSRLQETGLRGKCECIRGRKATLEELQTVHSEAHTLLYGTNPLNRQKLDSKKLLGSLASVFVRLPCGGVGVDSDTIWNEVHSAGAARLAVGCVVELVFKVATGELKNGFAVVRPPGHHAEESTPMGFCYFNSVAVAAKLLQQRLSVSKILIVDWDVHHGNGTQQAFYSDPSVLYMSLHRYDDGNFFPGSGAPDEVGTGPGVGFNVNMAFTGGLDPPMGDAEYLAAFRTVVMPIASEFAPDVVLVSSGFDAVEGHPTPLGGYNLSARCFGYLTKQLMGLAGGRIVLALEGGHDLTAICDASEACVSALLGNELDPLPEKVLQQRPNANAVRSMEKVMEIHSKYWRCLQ
QUANTITY: pIC50
Please keep in mind that pIC50 is minus log10 of the molar concentration; only the number is needed.

{"COMPOUND": "Cc1c(F)cccc1[C@]1(C(=O)NO)CC[C@@H](c2ccc3oc(C4CC4)nc3c2)C1 (relative stereo)", "DATA_VALUE": 6.55}

Field request: pIC50 | item: Cc1c(F)cccc1[C@]1(C(=O)NO)CC[C@@H](c2ccc3cn(C(F)F)nc3c2)C1 (relative stereo)
6.96

Please answer likewise for Cc1c(F)cccc1[C@]1(C(=O)NO)CC[C@@H](c2ccc3cnn(C(F)F)c3c2)C1 (relative stereo)
7.14

Please answer likewise for `CCc1ccccc1C1(C(=O)NO)CCCC1`
5.96

Please answer likewise for `Cc1c(F)cccc1[C@]1(C(=O)NO)CC[C@H](Oc2ccccc2)CC1`
6.17

Please answer likewise for Cc1c(F)cccc1[C@]1(C(=O)NO)CC[C@@H](c2ccc3c(cnn3C)c2)C1 (relative stereo)
6.96

----------
Quick note: these are log10 of IC50 numbers for system: human catalytic domain HDAC4 protein (amino acids 648-1032) (Homo sapiens (Human))
The common logarithm of IC50 in nM is what is listed.

{"MOLECULE": "Cc1c(F)cccc1[C@]1(C(=O)NO)CC[C@@H](c2ccc3nc(C(F)(F)F)[nH]c3c2)C1 (relative stereo)", "TARGET": "human catalytic domain HDAC4 protein (amino acids 648-1032) (Homo sapiens (Human))", "QUANTITY": "log10 of IC50", "DATA_VALUE": 1.87}
{"MOLECULE": "Cc1ccc(F)cc1C1(C(=O)NO)CCCC1", "TARGET": "human catalytic domain HDAC4 protein (amino acids 648-1032) (Homo sapiens (Human))", "QUANTITY": "log10 of IC50", "DATA_VALUE": 2.92}
{"MOLECULE": "Cc1c(F)cccc1[C@]1(C(=O)NO)CC[C@@H](c2ccc3cnn(C)c3c2F)C1 (relative stereo)", "TARGET": "human catalytic domain HDAC4 protein (amino acids 648-1032) (Homo sapiens (Human))", "QUANTITY": "log10 of IC50", "DATA_VALUE": 1.74}
{"MOLECULE": "O=C(NO)C1(c2ccccc2Cl)CCCC1", "TARGET": "human catalytic domain HDAC4 protein (amino acids 648-1032) (Homo sapiens (Human))", "QUANTITY": "log10 of IC50", "DATA_VALUE": 3.28}

Next up:
Field request: log10 of IC50 | item: Cc1c(F)cccc1C1(C(=O)NO)CCC(c2cccnc2)C1 (centres unmarked)
2.28

----------
target: human catalytic domain HDAC4 protein (amino acids 648-1032) (Homo sapiens (Human), UniProt P56524)
pIC50: −log10 of the molar value.
pIC50 of 6 or higher: TRUE. Under 6: FALSE.

Sample answers from the record:
{"COMPOUND": "O=C(NO)C1(c2ccccc2)CCCCCC1 [Example 106]", "CATEGORY": "FALSE"}
{"COMPOUND": "Cc1cccc(C2(C(=O)NO)CCCC2)c1 [Example 25]", "CATEGORY": "FALSE"}
{"COMPOUND": "Cc1c(F)cccc1[C@]1(C(=O)NO)CC[C@@H](c2nc3ccccc3s2)C1 (relative stereo) [Example 76]", "CATEGORY": "TRUE"}
{"COMPOUND": "N#Cc1cccc(C2(C(=O)NO)CCCC2)c1 [Example 28]", "CATEGORY": "FALSE"}

Confirm if pIC50 reported for the compound N#Cc1ccccc1C1(C(=O)NO)CCCC1 [Example 27] is 6 or above.
FALSE

Please answer likewise for Cc1c(F)cccc1[C@]1(C(=O)NO)CC[C@H](c2ccc3c(cnn3C)c2)C1 (relative stereo) [Example 64]
TRUE

----------
Quick note: these are log10 of IC50 numbers for system: human catalytic domain HDAC4 protein (amino acids 648-1032) (Homo sapiens (Human))
The common logarithm of IC50 in nM is what is listed.

Record excerpt, results attached:
{"MOLECULE": "COc1ncc([C@@H]2CC[C@@](C(=O)NO)(c3cccc(F)c3C)C2)cc1F (relative stereo)", "DATA_VALUE": 2.28}
{"MOLECULE": "Cc1c(F)cccc1[C@]1(C(=O)NO)CC[C@@H](c2ccc3nc(C4CC4)sc3c2)C1 (relative stereo)", "DATA_VALUE": 2.53}
{"MOLECULE": "Cc1c(F)cccc1[C@]1(C(=O)NO)CC[C@H](c2ccc3cnn(C)c3c2F)C1 (relative stereo)", "DATA_VALUE": 2.04}

Field request: log10 of IC50 | item: Cc1c(F)cccc1[C@]1(C(=O)NO)CC[C@H](c2ccc3nc(C4CC4)sc3c2)C1 (relative stereo)
2.49

Please answer likewise for `Cc1c(F)cccc1[C@]1(C(=O)NO)CC[C@@H](c2ccc3cnn(C)c3c2)CC1`
3.62

Please answer likewise for Cc1c(F)cccc1[C@]1(C(=O)NO)CC[C@H](c2ccnn2C)C1 (relative stereo)
2.40

Please answer likewise for `O=C(NO)[C@@]1(c2ccccc2)CC[C@H](c2cncc(F)c2)C1`
3.15

Please answer likewise for Cc1c(F)cccc1[C@]1(C(=O)NO)CC[C@@H](c2cncc(F)c2)C1 (stereo in doubt)
2.15

Please answer likewise for `Cc1c(F)cc(F)cc1C1(C(=O)NO)CCCC1`
2.52

Please answer likewise for Cc1c(F)cccc1[C@]1(C(=O)NO)CC[C@@H](c2ccc(F)cn2)C1 (relative stereo)
2.38

Please answer likewise for `Cc1c(C2(C(=O)NO)CCCC2)ccc(F)c1F`
2.18

----------
target: human catalytic domain HDAC4 protein (amino acids 648-1032) (Homo sapiens (Human)); assay: Inhibition of HDAC4 catalytic domain enzymatic activity, fluorogenic substrate Boc-Lys(Tfa)-AMC; details: HDAC4 catalytic domain enzyme, read-out: Biochemical HDAC4 IC50
QUANTITY: IC50

Record excerpt, results attached:
{"SMILES_ENTRY": "O=C(NO)[C@]1(c2ccccc2)CC[C@H](c2cncc(F)c2)CC1", "TARGET": "human catalytic domain HDAC4 protein (amino acids 648-1032) (Homo sapiens (Human))", "IC50": "> 50 µM"}
{"SMILES_ENTRY": "COc1ccccc1C1(C(=O)NO)CCCC1", "TARGET": "human catalytic domain HDAC4 protein (amino acids 648-1032) (Homo sapiens (Human))", "IC50": "> 50 µM"}

Field request: IC50 | item: `COc1cccc(C2(C(=O)NO)CCCC2)c1C(F)(F)F`
> 50 µM

----------
target: human catalytic domain HDAC4 protein (amino acids 648-1032) (Homo sapiens (Human)); experiment: Inhibition of HDAC4 catalytic domain enzymatic activity, fluorogenic substrate Boc-Lys(Tfa)-AMC; conditions: HDAC4 catalytic domain enzyme, read-out: Biochemical HDAC4 IC50
Quick reference: IC50 of the listed items.
Entry rule: numbers only, all in nM.

Record excerpt, results attached:
{"MOLECULE": "Cc1c(F)cccc1[C@@]1(C(=O)NO)CC[C@H](c2cncc(F)c2)C1 (stereo in doubt)", "IC50 / nM": 720}
{"MOLECULE": "Cc1cccc(F)c1C1(C(=O)NO)CCCC1", "IC50 / nM": 1500}

Next up:
Look up IC50 with human catalytic domain HDAC4 protein (amino acids 648-1032) (Homo sapiens (Human)) for this molecule: `Cc1c(F)cccc1[C@]1(C(=O)NO)CC[C@H](c2ccc3cnn(C)c3c2)CC1`
950

The measured values listed here are drawn from patent US9783488B2.
